- Test system: BEL-7404 tumor cell line
- assay details: MTT cytotoxicity assay, BEL-7404
- Type: cell-based, human
- cond: Homo sapiens, BEL-7404; complexes 1-5 at 20 μM, incubation 48 h; read-out: Inhibition rate BEL-7404
# inhibition at 20 µM listing for each entry below

{"compound": "COC(=O)c1cc(O)n(-c2cccc(Br)n2)n1", "inhibition at 20 µM, %": 20.2}
{"compound": "COC(=O)c1cc(OC(C)=O)n(-c2cccc(Br)n2)n1", "inhibition at 20 µM, %": 38.2}
{"compound": "COC(=O)C1=NN(c2cccc(Br)n2)C2(C(C(=O)O)=NN(c3cccc(Br)n3)C2O)C1(C(=O)OC)c1c(C(=O)OC)nn(-c2cccc(Br)n2)c1O (centres unmarked)", "inhibition at 20 µM, %": 27.2}
{"compound": "COC(=O)C1=NN(c2cccc(Br)n2)C(=O)C1(c1c(C(=O)OC)nn(-c2cccc(Br)n2)c1O)c1c(C(=O)OC)nn(-c2cccc(Br)n2)c1O", "inhibition at 20 µM, %": 24.6}
{"compound": "COC(=O)C1=NN(c2cccc(Br)n2)C2(C(C(=O)OC)=NN(c3cccc(Br)n3)C2O)C1(C(=O)OC)c1c(C(=O)OC)nn(-c2cccc(Br)n2)c1O (centres unmarked)", "inhibition at 20 µM, %": 39.6}

###

- System: normal liver cell line HL-7702
- assay details: MTT cytotoxicity assay, HL-7702
- Assay type: cell-based, human
- cond: 48 h, MTT, mean ± SD, normal liver cells
pIC50: −log10 of the molar value.

{"molecule": "N.N.[Cl][Pt][Cl] [Cisplatin, reference compound]", "pIC50": 5.25}
